MEASUREMENT_NOTES: Protein binding in human plasma assessed as unbound fraction
Type: ADME, cell-free
MEASURED_ENDPOINT: fraction unbound
Lab note: write the figure by itself, no unit.

INPUT: Sample CS(=O)(=O)c1ccc(-c2cnc(NCc3ccco3)n3cnnc23)cc1 — what was its fraction unbound?
OUTPUT: 0.13

* * *

TARGET_DESC: Polycomb protein EED (Homo sapiens, UniProt O75530)
Sequence (O75530 whole entry): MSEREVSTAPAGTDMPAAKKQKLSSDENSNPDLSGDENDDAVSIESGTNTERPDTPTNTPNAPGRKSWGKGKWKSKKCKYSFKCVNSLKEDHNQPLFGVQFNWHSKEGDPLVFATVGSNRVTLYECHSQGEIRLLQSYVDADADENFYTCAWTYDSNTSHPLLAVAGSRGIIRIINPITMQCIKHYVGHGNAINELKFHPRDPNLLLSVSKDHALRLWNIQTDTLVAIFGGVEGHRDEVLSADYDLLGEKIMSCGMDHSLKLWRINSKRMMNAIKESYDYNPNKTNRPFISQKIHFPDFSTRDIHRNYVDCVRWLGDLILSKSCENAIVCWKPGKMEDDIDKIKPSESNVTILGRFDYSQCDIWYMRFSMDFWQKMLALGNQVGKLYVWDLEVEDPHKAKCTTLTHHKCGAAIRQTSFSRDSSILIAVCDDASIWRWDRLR
MEASUREMENT_NOTES: Inhibition of EED in human G401 cells assessed as reduction in global H3K27me3 level after 48 hrs by ELISA
Type: cell-based
Consider the following molecules and their measured pIC50 readings.
To interpret pIC50, take it as minus log10 of a concentration measured in moles per litre.

INPUT: GET /values?readout=pIC50&system=Polycomb protein EED (Homo sapiens, UniProt O75530)&item= c1coc(CNc2ncc(-c3ccc(CN4CCCC4)cc3)c3nncn23)c1
OUTPUT: 7.49

INPUT: Param readout= pIC50; system= Polycomb protein EED (Homo sapiens, UniProt O75530); entry= N#Cc1cc(-c2ccccc2F)c2nncn2c1NCc1ccco1 ; returns value.
OUTPUT: 6.68

INPUT: Param readout= pIC50; system= Polycomb protein EED (Homo sapiens, UniProt O75530); entry= N#Cc1c2c(c3nncn3c1NCc1ccco1)CN(Cc1ccccc1)CC2 ; returns value.
OUTPUT: 5.48

INPUT: Recorded pIC50 for CS(=O)(=O)c1ccc(-c2cnc(NCc3ccco3)n3cnnc23)cc1 with Polycomb protein EED (Homo sapiens, UniProt O75530), please?
OUTPUT: 6.66
